# test.target: human Adenosine A1 receptor (Homo sapiens (Human))
# Sequence (P30542 whole entry): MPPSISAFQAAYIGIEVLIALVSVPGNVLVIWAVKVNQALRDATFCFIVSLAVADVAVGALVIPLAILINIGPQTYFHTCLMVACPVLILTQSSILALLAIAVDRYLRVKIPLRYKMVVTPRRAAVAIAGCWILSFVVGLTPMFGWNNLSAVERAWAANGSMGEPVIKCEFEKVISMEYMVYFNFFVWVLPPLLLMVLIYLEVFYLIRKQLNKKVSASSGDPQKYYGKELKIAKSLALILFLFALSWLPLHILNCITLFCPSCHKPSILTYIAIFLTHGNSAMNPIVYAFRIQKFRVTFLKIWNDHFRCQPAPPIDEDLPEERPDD
# run.description: Adenosine receptor TR-FRET binding assay (A1)
# applied.conditions: inhibition of binding of 100 nM CA200645, CHO cell membranes
measurement.name: Ki (nM)

Cc1cc(-c2sc(NC(=O)N3CCN(C4COC4)CC3)nc2-c2cccc(C#N)c2)cc(Cl)n1 [Example 3.11]	102
Cc1cc(-c2sc(NC(=O)N3CC4(C3)CS(=O)(=O)C4)nc2-c2cccc(C#N)c2)cc(C)n1 [Example 6.46]	113
Cc1cc(-c2sc(NC(=O)N3CC4(CCNC4=O)C3)nc2-c2cccc(C#N)c2)cc(C)n1 [Example 6.59]	128
Cc1cc(-c2sc(NC(=O)N3CCN(S(C)(=O)=O)CC3)nc2-c2cccc(C#N)c2)cc(C)n1 [Example 4.18]	94
